# assay_protocol: The drug is tested on Z-014 corresponding to rat gut metagenome with ENA study accession number: PRJEB37062 and ENA sample accession number: ERS12561814 for biotransformation under anaerobic condition. The drug concentrations were measured over 9 timepoints collected between 0 and 24 hours of incubation by liquid-chromatography-coupled mass spectrometry (LC–MS); further: call rule not given here
# assay_context: 2 µM
property_label: Bacterial Biotransformation

| molecule | Bacterial Biotransformation |
| --- | --- |
| CN1CCOC(c2ccccc2)c2ccccc2C1 (configuration not stated) | Compound NOT metabolized |
| CC(C(=O)O)c1ccc2c(c1)Cc1cccnc1O2 (configuration not stated) | Compound NOT metabolized |
| CCCC1O[C@@H]2C[C@H]3[C@@H]4CCC5=CC(=O)C=C[C@]5(C)[C@H]4[C@@H](O)C[C@]3(C)[C@]2(C(=O)CO)O1 (some centres not stated) [BUDESONIDE] | Compound metabolized |
| CCN(CC)CCOCCOC(=O)C1(c2ccccc2)CCCC1.O=C(O)CC(O)(CC(=O)O)C(=O)O [CARBETAPENTANE CITRATE] | Compound NOT metabolized |
| O=P(O)(O)O.c1ccc(CN(CC2=NCCN2)c2ccccc2)cc1 [ANTAZOLINE PHOSPHATE] | Compound NOT metabolized |
| C=CCN1CC[C@]23c4c5ccc(O)c4O[C@H]2C(=O)CC[C@@]3(O)[C@H]1C5 | Compound NOT metabolized |
| CCCc1nc2c(C)cc(-c3nc4ccccc4n3C)cc2n1Cc1ccc(-c2ccccc2C(=O)O)cc1 | Compound metabolized |
| Cc1nc2n(c(=O)c1CCN1CCC(c3noc4cc(F)ccc34)CC1)CCCC2 | Compound metabolized |

The reported Bacterial Biotransformation of the molecule CC(C)c1nc(CN(C)C(=O)N[C@H](C(=O)N[C@@H](Cc2ccccc2)C[C@H](O)[C@H](Cc2ccccc2)NC(=O)OCc2cncs2)C(C)C)cs1 was Compound metabolized

# molecule CC(=O)OCC(=O)[C@@]1(O)[C@@H](C)C[C@H]2[C@@H]3CCC4=CC(=O)C=C[C@]4(C)[C@@]3(F)[C@@H](O)C[C@@]21C [BETAMETHASONE ACETATE] ; its Bacterial Biotransformation = Compound NOT metabolized

Noted for Cc1ccccc1N1C(=O)c2cc(S(N)(=O)=O)c(Cl)cc2NC1C (configuration not stated) : its Bacterial Biotransformation reads Compound NOT metabolized

Measured Bacterial Biotransformation of CN1CCN(C(=O)O[C@H]2c3nccnc3C(=O)N2c2ccc(Cl)cn2)CC1 : Compound NOT metabolized

---

# assay_protocol: The drug is tested on Z-024 corresponding to pig gut metagenome with ENA study accession number: PRJEB37062 and ENA sample accession number: ERS12561823 for biotransformation under anaerobic condition. The drug concentrations were measured over 9 timepoints collected between 0 and 24 hours of incubation by liquid-chromatography-coupled mass spectrometry (LC–MS)
# assay_context: 2 µM
property_label: Bacterial Biotransformation

Take a look at these entries with their results.
| compound | property_label | value_observed |
| --- | --- | --- |
| CCN(CC)C(=O)/C(C#N)=C/c1cc(O)c(O)c([N+](=O)[O-])c1 | Bacterial Biotransformation | Compound metabolized |
| CCCCCCOC(=O)/N=C(/N)c1ccc(NCc2nc3cc(C(=O)N(CCC(=O)OCC)c4ccccn4)ccc3n2C)cc1.CS(=O)(=O)O [DABIGATRAN ETEXILATE MESYLATE] | Bacterial Biotransformation | Compound NOT metabolized |
| CC(O)(CS(=O)(=O)c1ccc(F)cc1)C(=O)Nc1ccc(C#N)c(C(F)(F)F)c1 (stereo not drawn) [BICALUTAMIDE] | Bacterial Biotransformation | Compound NOT metabolized |
| Cc1ccc(-c2nc3ccc(C)cn3c2CC(=O)N(C)C)cc1 | Bacterial Biotransformation | Compound NOT metabolized |
| Cc1ccc(-c2cc(C(F)(F)F)nn2-c2ccc(S(N)(=O)=O)cc2)cc1 | Bacterial Biotransformation | Compound NOT metabolized |

Short answer for COc1ccccc1OCC(O)COC(N)=O (stereo not drawn) : Bacterial Biotransformation was Compound NOT metabolized

# Bacterial Biotransformation of CN1C(=O)CC(C)(c2ccccc2)C1=O (stereo not drawn) [METHSUXIMIDE] = Compound metabolized

Record NC(=O)N1c2ccccc2CC(=O)c2ccccc21 [OXCARBAZEPINE] . Reported Bacterial Biotransformation: Compound metabolized

---

# assay_protocol: The drug is tested on Z-004 corresponding to metagenome with ENA study accession number: PRJEB37062 and ENA sample accession number: ERS12561804 for biotransformation under anaerobic condition. The drug concentrations were measured over 9 timepoints collected between 0 and 24 hours of incubation by liquid-chromatography-coupled mass spectrometry (LC–MS)
# assay_context: 2 µM
property_label: Bacterial Biotransformation

Some solved cases for reference:
| molecule | Bacterial Biotransformation |
| --- | --- |
| NC(CO)(CO)CO.O=C(c1ccccc1)c1ccc2n1CCC2C(=O)O (stereo not given) [KETOROLAC TROMETHAMINE] | Compound NOT metabolized |
| Cc1ccc(-c2cc(C(F)(F)F)nn2-c2ccc(S(N)(=O)=O)cc2)cc1 [CELECOXIB] | Compound NOT metabolized |
| C=CCc1ccccc1OCC(O)CNC(C)C (stereo not given) [ALPRENOLOL] | Compound NOT metabolized |
| COC1=CC(=O)C[C@@H](C)[C@]12Oc1c(Cl)c(OC)cc(OC)c1C2=O [GRISEOFULVIN] | Compound metabolized |

Entry under test: CCN(CC)C(C)CN1c2ccccc2Sc2ccccc21 (stereo not given) [ETHOPROPAZINE] . Its Bacterial Biotransformation was Compound metabolized

The recorded Bacterial Biotransformation for Nc1nc2ccc(OC(F)(F)F)cc2s1 [RILUZOLE] is Compound metabolized

Quick note, Bacterial Biotransformation for CCN(CC)CCNC(=O)c1cc(Cl)c(N)cc1OC [METOCLOPRAMIDE] landed at Compound NOT metabolized

Reported Bacterial Biotransformation for CCN(CC)CCOC(=O)C(Cc1cccc2ccccc12)CC1CCCO1.O=C(O)C(=O)O (stereo not given) [NAFRONYL OXALATE] was Compound metabolized

Consider CN1CCc2c(c3ccccc3n2Cc2ccccc2)C1.CN1CCc2c(c3ccccc3n2Cc2ccccc2)C1.O=S(=O)(O)c1cccc2c(S(=O)(=O)O)cccc12 . Its measured Bacterial Biotransformation is Compound NOT metabolized

---

# assay_protocol: The drug is tested on Z-022 corresponding to mouse gut metagenome with ENA study accession number: PRJEB37062 and ENA sample accession number: ERS12561821 for biotransformation under anaerobic condition. The drug concentrations were measured over 9 timepoints collected between 0 and 24 hours of incubation by liquid-chromatography-coupled mass spectrometry (LC–MS)
# assay_context: 2 µM
property_label: Bacterial Biotransformation

Sample records with Bacterial Biotransformation:
| compound | Bacterial Biotransformation |
| --- | --- |
| CCCCC1=NC2(CCCC2)C(=O)N1Cc1ccc(-c2ccccc2-c2nnn[nH]2)cc1 | Compound NOT metabolized |
| CC(C)OC(=O)C(C)(C)Oc1ccc(C(=O)c2ccc(Cl)cc2)cc1 [FENOFIBRATE] | Compound NOT metabolized |
| CN1C(C(=O)Nc2ccccn2)=C(O)c2sccc2S1(=O)=O | Compound metabolized |
| NC(CO)(CO)CO.O=C(c1ccccc1)c1ccc2n1CCC2C(=O)O (centres undefined) | Compound metabolized |
| Cc1ccc(S(=O)(=O)NC(=O)NN2CC3CCCC3C2)cc1 (centres undefined) [GLICLAZIDE] | Compound metabolized |
| CC(C)NCC(O)COc1ccc(COCCOC(C)C)cc1.CC(C)NCC(O)COc1ccc(COCCOC(C)C)cc1.O=C(O)/C=C/C(=O)O (centres undefined) [BISOPROLOL FUMARATE] | Compound metabolized |
| O=C(NCc1ccccc1)OCCO [BURAMATE] | Compound NOT metabolized |
| C[C@@H]1CC[C@H]2[C@@H](C)C(=O)O[C@@H]3O[C@@]4(C)CC[C@@H]1[C@]32OO4 | Compound metabolized |
| COc1cc2c(c(OC)c1OC)-c1ccc(OC)c(=O)cc1[C@@H](NC(C)=O)CC2 | Compound metabolized |
| Cc1ccc(-c2cc(C(F)(F)F)nn2-c2ccc(S(N)(=O)=O)cc2)cc1 | Compound NOT metabolized |

Looking up CC(=O)OCC(=O)[C@@]12N=C(C)O[C@@H]1C[C@H]1[C@@H]3CCC4=CC(=O)C=C[C@]4(C)[C@H]3[C@@H](O)C[C@@]12C , I found its Bacterial Biotransformation recorded as Compound metabolized

Record summary for OC(CCN1CCCCC1)(c1ccccc1)C1CCCCC1 (centres undefined) : reported Bacterial Biotransformation = Compound metabolized

Entry NS(=O)(=O)c1cc2c(cc1Cl)N=C(CSCc1ccccc1)NS2(=O)=O [BENZTHIAZIDE] , Bacterial Biotransformation reported as Compound NOT metabolized

Bacterial Biotransformation recorded for this compound, COc1ccccc1OCC(O)COC(N)=O (centres undefined) , is Compound NOT metabolized

Reported Bacterial Biotransformation for CCN1CCCC1CNC(=O)c1cc(S(N)(=O)=O)ccc1OC (centres undefined) [SULPIRIDE] was Compound NOT metabolized
